The measurements presented in this section are drawn from paper PMC10397247.

MEASUREMENT_TARGET: T1, 4H780-bH
T1 chain: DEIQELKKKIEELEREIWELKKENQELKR
ASSAY_SUMMARY: two-hybrid library CCNG1;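 also: natural log of median RNA to DNA barcode read ratio; higher means stronger binding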
Values of interaction score strictly less than -0.005 map to met, and values of at least -0.005 map to not met.

[[record]]
binder = "DEIQELKKENEELKRKNWELEKEIQELKR [4H754-bH]"
answer_label = "not met"

[[record]]
binder = "DKNQELKKKIEELKRENWELEKKIQELKR [4H3926-bH]"
answer_label = "met"

[[record]]
binder = "DEIQELKKKIEELEREIWELKKENQELKR [4H780-bH]"
answer_label = "not met"


Bench note: check whether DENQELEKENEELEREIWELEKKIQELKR [4H1158-bH] shows interaction score below -0.005 not met

Bench note: check whether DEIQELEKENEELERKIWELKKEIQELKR [4H170-bH] shows interaction score below -0.005 met

Bench note: check whether DKIQELKKENEELEREIWELKKKIQELKR [4H2702-bH] shows interaction score below -0.005 met

Bench note: check whether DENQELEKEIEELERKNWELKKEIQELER [4H1081-bH] shows interaction score below -0.005 met
